Source of measurements: ChEMBL document CHEMBL5058577

system: Fibroblast; test: Multiplex assay against human fibroblast; format: toxicity, cell-based; settings: 48 h, 1 µM, compound concentration 1 uM, replicate 2
MEASUREMENT LABEL: Population Normal (%)
Output spec: scalar in %, unitless text.

Known results for molecules:
CC(F)(F)CN1CCOc2c(nn(-c3ccccc3Cl)c2-c2ccc(Cl)cc2)C1=O ... 95
CCCCC[C@H](O)/C=C/[C@H]1[C@H](O)CC(=O)[C@@H]1CCCCCCC(=O)O [ALPROSTADIL] ... 96
Cc1cc(=O)n(C)c2cc(N3C(=O)CC[C@H](NS(=O)(=O)CC(C)C)[C@H]3c3ccc(Cl)cc3)ccc12 ... 92
CSc1nc(NC2CCCC2)c([N+](=O)[O-])c(NC2CCCC2)n1 [GS-39783] ... 96
Nc1nc(CC(=O)Nc2ccc(CCNC[C@H](O)c3ccccc3)cc2)cs1 [MIRABEGRON] ... 97

Challenge: // Input: COc1ccc2[nH]c(I)c(CCNC(C)=O)c2c1 [IODOMELATONIN] . Output its Population Normal (%) only.
Response given: 95

Challenge: // Input: COC(c1ccccc1)(c1ccccc1)[C@H](Oc1nc(C)cc(C)n1)C(=O)O [AMBRISENTAN] . Output its Population Normal (%) only.
Response given: 99

Challenge: // Input: O=C(NCCNCC(O)COc1ccc(O)cc1)N1CCOCC1.O=C(NCCNCC(O)COc1ccc(O)cc1)N1CCOCC1.O=C(O)/C=C/C(=O)O (centres undefined) [XAMOTEROL FUMARATE] . Output its Population Normal (%) only.
Response given: 97

Challenge: // Input: Cc1c(Cc2ccc3ccccc3n2)c2cc(F)ccc2n1CC(=O)O [TIMAPIPRANT] . Output its Population Normal (%) only.
Response given: 94

Challenge: // Input: Cc1cc(-c2ccc3c(c2)CC[C@H]3N2CC3(CCN(C(=O)Cc4cn5cc(C)sc5n4)CC3)C2)ncn1 [PF-5190457] . Output its Population Normal (%) only.
Response given: 97
